Below is a list of entries, each paired with its recorded viability value.
- testMethodNotes: SK-BR-3 cell growth inhibitors, pilot screen, 24 h, human (AID 572);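 further: compound exposure lasted between 18 and 24 h rather than exactly 24 h; 100% = carrier-treated control wells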
- settings: SK-BR-3 viability, CellTiter-Glo luminescence, at 10 µM, stronger effect = lower value
Activity calls are given as the source filed them.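 How the source made its calls: active means viability at or below 10% of carrier control in both of two separate runs; inconclusive means viability at or below 10% in only one of the two runs; inactive means the rest.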

Known viability results, listed for orientation:
                                   compound            result
0  O=C(C1CCC(CNS(=O)(=O)c2cccc3cccnc23)CC1)N1CCCC1 (centres undefined)  98.5% (inactive)
1      COc1cccc(NC(=O)N2CCC(N3CCCCC3)CC2)c1    92% (inactive)
2       COCCCN(Cc1ccccn1)S(=O)(=O)Cc1ccccc1   130% (inactive)
3              c1n[nH]c(SCCCCSc2ncn[nH]2)n1   101% (inactive)
4                    Oc1c(I)cc(Cl)c2cccnc12    84% (inactive)
5  COc1ccc(C2/C(=C(/O)c3ccc(OC(C)C)cc3)C(=O)C(=O)N2CCCN2CCOCC2)cc1 (centres undefined)   112% (inactive)
6  Cc1cc(C(=O)COC(=O)CCc2nc3ccccc3s2)c(C)n1C    94% (inactive)
7  Clc1ccc2c(c1)[C@H]1OCC[C@H]1[C@@H](c1ccco1)N2   104% (inactive)

According to the records, this compound c1cncc(C2Nc3ccccc3-c3nc4ccccc4n32)c1 (centres undefined) displays viability of 90% (inactive)

Every entry's value here was drawn from PubChem BioAssay.
